Tested On: DLG1_3, Q12959
Sequence (Q12959 457-571): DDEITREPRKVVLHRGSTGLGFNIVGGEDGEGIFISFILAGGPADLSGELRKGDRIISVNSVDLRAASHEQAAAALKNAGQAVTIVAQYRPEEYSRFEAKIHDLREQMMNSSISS
Test Protocol: holdup assay
Parameters: key: below the threshold = too weak to quantify, mostly under pKd 3.1 to 4
Condition Info: plain residues with an end cap or a label only (N-terminal biotin on a linker: ttds)
Each entry gets No if its pKd stays under 4, and Yes if its pKd is 4 or above.

The examples below pair each entry with its known result.
{"Binder": "RSLEEEESQL [GRASP, Q7Z6J2]", "Answer Label": "Yes"}
{"Binder": "VLRLQSETSV [VANGL1, Q8TAA9]", "Answer Label": "Yes"}
{"Binder": "STLTIFETAL [ABCC4, O15439]", "Answer Label": "Yes"}
{"Binder": "TVASEKESVM [SLC1A5, Q15758]", "Answer Label": "No"}

Proceed to the following item.
input: Form field: pKd at least 4? Entry: SSRTRRETQL [HPV16-E6, P03126]
output: Yes

Attribution: paper PMC9482650
